Target chain: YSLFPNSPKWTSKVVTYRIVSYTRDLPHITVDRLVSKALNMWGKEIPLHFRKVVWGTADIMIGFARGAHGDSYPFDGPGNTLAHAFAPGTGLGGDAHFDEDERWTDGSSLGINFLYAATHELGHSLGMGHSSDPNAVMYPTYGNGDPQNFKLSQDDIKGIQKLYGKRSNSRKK
pIC50: −log10 of the molar value.
Assay Readout: pIC50

pIC50 recorded for this molecule, O=C(O)C1CCCN(CCCn2nnc(-c3cccc(C#CCc4ccc(F)cc4)c3)n2)C1 (stereo not shown) , is < 4.00

====

Experimental Details: Solubility in pH 6.5 aqueous phosphate buffer (Chemical Method 1, PDS solubility)
Type: physicochemical
Run Conditions: thermodynamic from solid; saturated solution in pH 6.5 aqueous phosphate buffer, 5% glyme, UV-visible absorbance
Please go through the items and note down their solubility.
Entry rule: numbers only, all in µg/mL.

solubility recorded for this compound, Cc1cc(-c2nnn(CC(=O)O)n2)cc(C(=O)NCc2ccc(F)cc2)n1 [Example I2] , is 880

solubility recorded for this compound, Cc1cc(-c2nnn(CC(=O)NCCC(=O)O)n2)cc(C(=O)NCc2ccc(F)cc2)n1 [Example 2] , is 220

solubility recorded for this compound, Cc1cc(-c2nnn(CC(=O)N3CCCC3C(=O)O)n2)cc(C(=O)NCc2ccc(F)cc2)n1 (stereo not shown) [Example 3] , is 1200

solubility recorded for this compound, Cc1cc(-c2nnn(CC(=O)NCC(=O)O)n2)cc(C(=O)NCc2ccc(F)cc2)n1 [Example 1] , is 580

Each recorded value in this set is attributed to patent US20090137637A1.
